B1: Transcription factor SOX-11, residues 50 to 117; numbered along this chain, P35716 (parent)
chain: KRPMNAFMVWSKIERRKIMEQSPDMHNAEISKRLGKRWKMLKDSEKIPFIREAERLRLKHMADYPDYK

- Variants of: B1
- Protocol: abundance fitness (aPCA) (normalised: wild type 0, dead -1); higher = more abundant; growth selection in yeast, the domain comes from the species named
- Condition notes: Homo sapiens
Listing: abundance fitness of selected variants

Worked examples follow.
>  <Mutation name>
K46P

>  <abundance fitness>
-0.844

$$$$
>  <Mutation name>
D24I

>  <abundance fitness>
-0.538

$$$$
>  <Mutation name>
M40R

>  <abundance fitness>
-0.372

$$$$
>  <Mutation name>
I30Y

>  <abundance fitness>
-0.596

$$$$
>  <Mutation name>
M40E

>  <abundance fitness>
0.354

$$$$

With those in mind, consider the next variant.
Incoming: Respond only with abundance fitness recorded for `Q21W`
Outgoing: -0.313
